# Assay Procedure: Volume of distribution at steady state in C57BL/6 mouse at 1 mg/kg, iv
# Type: ADME, organism-based
# Parameters: dose 1 mg/kg, route intravenous
# Test Settings: in vivo, read-out: Vdss
Measurement Kind: Vd (L/kg)
Dear colleague, please return just the value in L/kg, with no unit written.

Compound String	Unit Abbreviation	Vd
COc1ccnc(N2CCC3(CCCN(Cc4c[nH]c5ccccc45)C3=O)CC2)n1	L/kg	1.6

// query Using the record for O=C1CCCC2(CCN(c3cnc4ccccc4n3)CC2)N1Cc1cccc2[nH]ccc12 , state its measured Vd.
// result 3.1

* * *

# Study System: Orexin receptor type 2 (Homo sapiens)
# Sequence (O43614 whole entry): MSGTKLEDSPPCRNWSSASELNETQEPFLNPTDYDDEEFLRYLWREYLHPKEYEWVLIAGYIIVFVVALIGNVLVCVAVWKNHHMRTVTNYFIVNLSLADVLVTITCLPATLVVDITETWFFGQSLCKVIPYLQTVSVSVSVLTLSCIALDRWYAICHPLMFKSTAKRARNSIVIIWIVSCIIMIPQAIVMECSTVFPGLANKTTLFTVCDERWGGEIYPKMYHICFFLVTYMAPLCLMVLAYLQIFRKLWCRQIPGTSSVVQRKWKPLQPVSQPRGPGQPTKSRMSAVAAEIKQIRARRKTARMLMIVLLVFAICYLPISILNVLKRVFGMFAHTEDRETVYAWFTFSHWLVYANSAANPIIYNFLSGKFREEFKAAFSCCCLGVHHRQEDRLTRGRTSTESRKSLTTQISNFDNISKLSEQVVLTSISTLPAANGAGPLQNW
# Assay Procedure: Antagonist activity at human OX2 receptor expressed in HEK cells assessed as inhibition of orexin A-induced Ca2+ accumulation after 1 hr by Fluo-4-AM staining-based FLIPR assay
# Format: functional, cell-based, HEK293
pKi: −log10 of the molar value.
Decision: pKi >= 8 yields 1 (yes), all other cases yield 0 (no).

Compound String	Category Label
O=C1N(Cc2ccccc2)CCCC12CCN(c1cnc3ccccc3n1)CC2	0 (no)
O=C1CCCC2(CCN(c3nc4ccccc4o3)CC2)N1Cc1cccc2[nH]ccc12	1 (yes)
Cc1cc(C)nc(N2CCC3(CCCN(Cc4nn(C)cc4-c4ccccc4)C3=O)CC2)n1	0 (no)

// next entry
// query Can O=C1N(Cc2c[nH]c3ccccc23)CCCC12CCN(c1ncccn1)CC2 be said to have pKi at or above 8?
// result 0 (no)

Data origin, for the record: ChEMBL document CHEMBL2434958
